Test system: MIA PaCa-2
experiment.description: Cytotoxicity against human MIAPaCa2 cells after 24 hrs by MTT assay
Type: functional, cell-based
condition.description: MIA PaCa-2, 24 h
pIC50: −log10 of the molar value.
test.readout: pIC50

# chemical.structure, test.readout, reported.result
rows = [
    ("CC#CC#CC(=O)c1ccccc1", "pIC50", "5.21 to 6.22"),
]

* * *

Each entry below carries its reported pIC50.
Tested on: BHY
experiment.description: Antiproliferative activity against human BHY cells assessed as reduction in cell viability after 48 hrs by MTT assay
Type: functional, cell-based
pIC50: −log10 of the molar value.
test.readout: pIC50

# molecule, test.readout, reported.result
measured = [
    ("C=C1C(=O)O[C@H]2[C@H]1CCC(C)=C1C[C@H]3O[C@@]3(C)[C@@H]12 [LUDARTIN]", "pIC50", "4.06 to 4.60"),
    ("C=C(C)[C@@H]1CC[C@]2(C)CC[C@]3(C)[C@H](CC[C@@H]4[C@@]5(C)CC[C@H](O)C(C)(C)[C@@H]5CC[C@]43C)[C@@H]12 [LUPEOL]", "pIC50", "4.06 to 4.60"),
]
